Ref: ChEMBL document CHEMBL3244253

The following compounds are shown together with reported Activity values.
tgt: Purine nucleoside phosphorylase (Homo sapiens)
measurement protocol: Activity of human erythrocyte purine nucleoside phosphorylase assessed as ribose relase at 5 umol after 30 mins by orcinol reaction relative to guanosine
Form entry: enter the amount, then its unit.

structure_as_smiles=Cn1c(N)nc2c(ncn2[C@@H]2O[C@H](CO)[C@@H](O)[C@H]2O)c1=O value_measured=0%

Prompt: Provide measured Activity value, entry: O=c1[nH]cnc2c1ncn2[C@@H]1O[C@H](CO)[C@@H](O)[C@H]1O
Completion: 100%

Prompt: Provide measured Activity value, entry: Nc1nc2c(ncn2[C@@H]2O[C@H](CO)[C@@H](O)[C@H]2O)c(=O)[nH]1
Completion: 100%
